Biological target: HDAC1 (Homo sapiens (Human))
Assay: In vitro inhibitory activity towards HDAC1 (HDAC Inhibitor Drug Screening Kit)
Format: biochemical
Settings: compound at 10 μM
Assay metric: inhibition at 10 µM (%)

Chemical smiles | Meas value
Nc1ccccc1NC(=O)c1ccc(CNC(=O)c2cc3cc(C(F)(F)F)ccc3[nH]2)cc1 | 72.2
Nc1ccc(-c2cccs2)cc1NC(=O)c1ccc(CNC(=O)c2cc3ccccc3o2)cc1 | 75.4
Nc1ccc(F)cc1NC(=O)c1ccc(CNC(=O)c2nc3ccccc3[nH]2)cc1 | 23.9

----------
Tested on: MDA-MB-435s human breast cancer cells
Experiment: In vitro anti-proliferative effect, CCK-8 method
Assay type: cell-based
Details: Homo sapiens

Molecule | Unit annotation | IC50
Nc1ccc(F)cc1NC(=O)c1ccc(CNC(=O)c2cc3ccccc3o2)cc1 [Compound V-9] | µM | 14.8

----------
Tested on: PC-3 human prostate cancer
Test: In vitro anti-proliferative effect, CCK-8 method
Type: cell-based
Conditions: Homo sapiens
Assay metric: IC50

Chemical smiles | Assay metric | Meas value
Nc1ccccc1NC(=O)c1ccc(CNC(=O)c2cc3ccccc3[nH]2)cc1 | IC50 | 242 nM
Nc1ccc(F)cc1NC(=O)c1ccc(CNC(=O)c2cc3ccccc3o2)cc1 | IC50 | 2240 nM
CC(=O)c1ccc2[nH]c(C(=O)NCc3ccc(C(=O)Nc4ccccc4N)cc3)cc2c1 | IC50 | 12200 nM
Nc1ccc(F)cc1NC(=O)c1ccc(CNC(=O)c2cc3ccccc3s2)cc1 | IC50 | 3570 nM
Cc1ccc2[nH]c(C(=O)NCc3ccc(C(=O)Nc4ccccc4N)cc3)cc2c1 | IC50 | 191 nM
CC(=O)Nc1ccc2[nH]c(C(=O)NCc3ccc(C(=O)Nc4ccccc4N)cc3)cc2c1 | IC50 | 69 nM
Nc1ccccc1NC(=O)c1ccc(CNC(=O)c2cccc3ccccc23)cc1 | IC50 | 2630 nM
Nc1cnccc1NC(=O)c1ccc(CNC(=O)c2cc3ccccc3[nH]2)cc1 | IC50 | 370 nM

----------
Tested on: Colo320 human rectal cancer cell line
Test: In vitro anti-proliferative effect, CCK-8 method
Type: cell-based
Conditions: Homo sapiens, COLO 320
Description: The inhibitory activities of the compounds towards Hut78 T lymphocytic leukemia cells, Jurkat E6-1 human T-cell lymphoma, A549 human lung cancer cells, K562 human chronic myelogenous leukemia cells, Hep3B2.1-7 human liver cancer cells, MDA-MB-435s human breast cancer cells, Colo320 human rectal cancer cell line, and PC-3 human prostate cancer were determined. The inhibition percentages as represented by IC50 values were obtained through CCK-8 method.
pIC50: −log10 of the molar value.
Listed compounds paired with reported pIC50

Chemical smiles | pIC50
Nc1ccccc1NC(=O)c1ccc(CNC(=O)c2cccc3ccccc23)cc1 | 5.03
Nc1cnccc1NC(=O)c1ccc(CNC(=O)c2cccc3ccccc23)cc1 | 4.07
Nc1ccccc1NC(=O)c1ccc(CNC(=O)c2cc3ccccc3[nH]2)cc1 | 5.61
CC(=O)c1ccc2[nH]c(C(=O)NCc3ccc(C(=O)Nc4ccccc4N)cc3)cc2c1 | 4.05
Nc1ccc(F)cc1NC(=O)c1ccc(CNC(=O)c2cc3ccccc3s2)cc1 | 4.57
Nc1cnccc1NC(=O)c1ccc(CNC(=O)c2cc3ccccc3[nH]2)cc1 | 5.50

----------
Target: HDAC1 (Homo sapiens (Human))
Test: In vitro inhibitory activity towards HDAC1 (HDAC Inhibitor Drug Screening Kit)
Assay type: biochemical
Details: compound at 10 μM
Method: (1) The compounds to be tested were each individually prepared as 10 μM and 1 μM solutions and their inhibitory activities towards HDAC1 at these concentrations were tested. Each dilution sample was placed in two wells and the enzyme inhibition IC50 of the compound was tested.
Assay metric: inhibition at 10 µM

Chemical smiles | Meas value
CNc1ccc2[nH]c(C(=O)NCc3ccc(C(=O)Nc4ccccc4N)cc3)cc2c1 | 59.5%
Nc1ccccc1NC(=O)c1ccc(CNC(=O)c2cc3ccccc3s2)cc1 | 67.4%
Nc1ccc(F)cc1NC(=O)c1ccc(CNC(=O)c2cc3ccccc3s2)cc1 | 80.2%
Nc1ccccc1NC(=O)c1ccc(CNC(=O)c2ccc3ccccc3c2)cc1 | 15.2%
Nc1ccc(F)cc1NC(=O)c1ccc(CNC(=O)c2cc3ccccc3[nH]2)cc1 | 53.3%
Nc1ccccc1NC(=O)c1ccc(CNC(=O)c2nc3ccccc3[nH]2)cc1 | 28.4%
Nc1ccccc1NC(=O)c1ccc(CNC(=O)c2cc3cc(F)ccc3[nH]2)cc1 | 49.5%
Cc1ccc2[nH]c(C(=O)NCc3ccc(C(=O)Nc4ccccc4N)cc3)cc2c1 | 84%

----------
Target: HDAC1 (Homo sapiens (Human))
Test: In vitro inhibitory activity towards HDAC1 (HDAC Inhibitor Drug Screening Kit)
Type: biochemical
Conditions: compound at 10 μM
# label = YES if inhibition at 10 µM >= 70% else NO

Molecule | Class assignment
Nc1ccc(-c2ccccc2)cc1NC(=O)c1ccc(CNC(=O)c2cc3ccccc3o2)cc1 [Compound V-11] | NO
Nc1ccc(F)cc1NC(=O)c1ccc(CNC(=O)c2cccc3ccccc23)cc1 [Compound V-17] | YES
CC(=O)Nc1ccc2[nH]c(C(=O)NCc3ccc(C(=O)Nc4ccccc4N)cc3)cc2c1 [Compound V-25] | YES
Nc1cnccc1NC(=O)c1ccc(CNC(=O)c2cc3ccccc3s2)cc1 [Compound V-28] | YES
Nc1ccccc1NC(=O)c1ccc(CNC(=O)c2cc3ccccc3o2)cc1 [Compound V-8] | YES
Nc1cnccc1NC(=O)c1ccc(CNC(=O)c2cc3ccccc3[nH]2)cc1 [Compound V-6] | YES
Nc1cnccc1NC(=O)c1ccc(CNC(=O)c2cccc3ccccc23)cc1 [Compound V-16] | YES
COc1ccc2cc(C(=O)NCc3ccc(C(=O)Nc4cc(F)ccc4N)cc3)ccc2c1 [Compound V-4] | NO
COc1ccc2cc(C(=O)NCc3ccc(C(=O)Nc4ccccc4N)cc3)ccc2c1 [Compound V-3] | NO
Nc1ccccc1NC(=O)c1ccc(CNC(=O)c2cccc3ccccc23)cc1 [Compound V-15] | NO
Nc1ccccc1NC(=O)c1ccc(CNC(=O)c2cc3ccccc3[nH]2)cc1 [Compound V-5] | YES
Nc1ccc2[nH]c(C(=O)NCc3ccc(C(=O)Nc4ccccc4N)cc3)cc2c1 [Compound V-23] | YES
Nc1ccc(-c2ccco2)cc1NC(=O)c1ccc(CNC(=O)c2nc3ccccc3[nH]2)cc1 [Compound V-14] | YES
Nc1ccc(F)cc1NC(=O)c1ccc(CNC(=O)c2ccc3ccccc3c2)cc1 [Compound V-2] | NO

----------
Tested on: Jurkat E6-1 human T-cell lymphoma
Assay: In vitro anti-proliferative effect, CCK-8 method
Type: cell-based
Conditions: Homo sapiens
pIC50: −log10 of the molar value.
# label = 1 if pIC50 >= 6 else -1

Chemical smiles | Class assignment
Nc1ccc(-c2ccco2)cc1NC(=O)c1ccc(CNC(=O)c2nc3ccccc3[nH]2)cc1 | 1
CC(=O)c1ccc2[nH]c(C(=O)NCc3ccc(C(=O)Nc4ccccc4N)cc3)cc2c1 | -1
Nc1cnccc1NC(=O)c1ccc(CNC(=O)c2cc3ccccc3[nH]2)cc1 | 1
Nc1ccccc1NC(=O)c1ccc(CNC(=O)c2cc3ccccc3[nH]2)cc1 | 1
Nc1ccc(F)cc1NC(=O)c1ccc(CNC(=O)c2cc3ccccc3o2)cc1 | -1

----------
Target: HDAC1 (Homo sapiens (Human), UniProt Q13547)
Sequence (Q13547 whole entry): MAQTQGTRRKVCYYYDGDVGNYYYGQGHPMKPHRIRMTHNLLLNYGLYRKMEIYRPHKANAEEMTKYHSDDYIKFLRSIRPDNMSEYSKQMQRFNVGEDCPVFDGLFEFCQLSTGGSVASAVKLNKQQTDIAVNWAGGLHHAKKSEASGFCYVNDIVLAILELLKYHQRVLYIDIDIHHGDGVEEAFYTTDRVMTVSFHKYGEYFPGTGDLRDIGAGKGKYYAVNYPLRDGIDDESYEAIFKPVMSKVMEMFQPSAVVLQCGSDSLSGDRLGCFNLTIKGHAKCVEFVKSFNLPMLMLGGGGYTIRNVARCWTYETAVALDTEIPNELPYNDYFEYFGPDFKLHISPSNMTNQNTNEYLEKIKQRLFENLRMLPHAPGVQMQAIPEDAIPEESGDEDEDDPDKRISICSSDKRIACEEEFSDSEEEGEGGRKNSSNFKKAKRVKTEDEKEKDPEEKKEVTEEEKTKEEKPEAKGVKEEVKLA
Assay: In vitro inhibitory activity towards HDAC1 (HDAC Inhibitor Drug Screening Kit)
Type: biochemical
Details: compound at 1 μM
So basically every entry gets a class from its inhibition at 1 µM, ranges being Low: < 40%; Mid: ≥ 40% and < 60%; High: ≥ 60%

Chemical smiles | Class assignment
Nc1ccc2[nH]c(C(=O)NCc3ccc(C(=O)Nc4ccccc4N)cc3)cc2c1 | High
Nc1ccccc1NC(=O)c1ccc(CNC(=O)c2nc3ccccc3[nH]2)cc1 | Low
COc1c(C(=O)NCc2ccc(C(=O)Nc3ccccc3N)cc2)oc2ccccc12 | Low
COc1ccc2cc(C(=O)NCc3ccc(C(=O)Nc4ccccc4N)cc3)ccc2c1 | Low
Nc1cnccc1NC(=O)c1ccc(CNC(=O)c2cc3ccccc3[nH]2)cc1 | High
Cc1ccc2[nH]c(C(=O)NCc3ccc(C(=O)Nc4ccccc4N)cc3)cc2c1 | High
Nc1ccccc1NC(=O)c1ccc(CNC(=O)c2ccc3ccccc3c2)cc1 | Low
Nc1ccc(F)cc1NC(=O)c1ccc(CNC(=O)c2cccc3ccccc23)cc1 | Mid
Nc1ccc(F)cc1NC(=O)c1ccc(CNC(=O)c2cc3ccccc3o2)cc1 | Low
Nc1cnccc1NC(=O)c1ccc(CNC(=O)c2cc3ccccc3s2)cc1 | Mid
Nc1ccccc1NC(=O)c1ccc(CNC(=O)c2cccc3ccccc23)cc1 | Low
CC(=O)Nc1ccc2[nH]c(C(=O)NCc3ccc(C(=O)Nc4ccccc4N)cc3)cc2c1 | Mid
Nc1ccc(-c2ccccc2)cc1NC(=O)c1ccc(CNC(=O)c2cc3ccccc3o2)cc1 | Low
Nc1ccc(F)cc1NC(=O)c1ccc(CNC(=O)c2nc3ccccc3[nH]2)cc1 | Low
Nc1cnccc1NC(=O)c1ccc(CNC(=O)c2cccc3ccccc23)cc1 | High
Nc1ccc(F)cc1NC(=O)c1ccc(CNC(=O)c2cc3ccccc3s2)cc1 | Mid
COc1ccc2cc(C(=O)NCc3ccc(C(=O)Nc4cc(F)ccc4N)cc3)ccc2c1 | Low
CNc1ccc2[nH]c(C(=O)NCc3ccc(C(=O)Nc4ccccc4N)cc3)cc2c1 | Low
Nc1ccccc1NC(=O)c1ccc(CNC(=O)c2cc3cc(F)ccc3[nH]2)cc1 | Low
Nc1ccc(-c2ccco2)cc1NC(=O)c1ccc(CNC(=O)c2nc3ccccc3[nH]2)cc1 | High
Nc1ccccc1NC(=O)c1ccc(CNC(=O)c2cc3ccccc3o2)cc1 | High
Nc1ccc(F)cc1NC(=O)c1ccc(CNC(=O)c2cc3ccccc3[nH]2)cc1 | Mid
Nc1ccc(F)cc1NC(=O)c1ccc(CNC(=O)c2ccc3ccccc3c2)cc1 | Low
